FYI, the data here is from PubChem BioAssay.

- protocolText: growth suppression of yeast trafficking mutant, preliminary HTS, modulators of trafficking downstream of Golgi apparatus project, 1536-format plate, OD 615 nm (AID 637); note: test concentration not given here
- appliedConditions: yeast transport mutant growth, absorbance 615 nm, 18 h; stronger effect = higher value
inhibition values, listed per item
Respond with the bare value in %.

// worked examples, inhibition included
(Q) Return reported inhibition; argument: Cc1cc(NC(=O)CCCN2C(=O)c3cccnc3C2=O)no1
(A) -1.64

(Q) Would you mind doing COc1ccc(-n2ncc3c(NCc4ccccn4)ncnc32)cc1 as well?
(A) 4.19

(Q) Would you mind doing Cc1cccc(N2C(=O)CC(Sc3nc(C)c4c(n3)CCCC4)C2=O)c1 (configuration not stated) as well?
(A) 27.5

Next up:
(Q) Return reported inhibition; argument: CCOC(=O)C(NC(=O)c1ccc(OC)cc1)(N1CCOCC1)C(F)(F)F (configuration not stated)
(A) 0.32
